The reported measurements were obtained from patent US7071195B2.

Overview of recorded % Inh @ 3 uM (% Inhibition of 125I-PYY Binding) for various compounds
# measured.on: human neuropeptide Y5 receptor (Homo sapiens, UniProt Q15761)
# Construct: expressed in transfected cells; host or cells: HEK-293 (stably transfected, G-418 selected); membranes
# Sequence (Q15761 1-445): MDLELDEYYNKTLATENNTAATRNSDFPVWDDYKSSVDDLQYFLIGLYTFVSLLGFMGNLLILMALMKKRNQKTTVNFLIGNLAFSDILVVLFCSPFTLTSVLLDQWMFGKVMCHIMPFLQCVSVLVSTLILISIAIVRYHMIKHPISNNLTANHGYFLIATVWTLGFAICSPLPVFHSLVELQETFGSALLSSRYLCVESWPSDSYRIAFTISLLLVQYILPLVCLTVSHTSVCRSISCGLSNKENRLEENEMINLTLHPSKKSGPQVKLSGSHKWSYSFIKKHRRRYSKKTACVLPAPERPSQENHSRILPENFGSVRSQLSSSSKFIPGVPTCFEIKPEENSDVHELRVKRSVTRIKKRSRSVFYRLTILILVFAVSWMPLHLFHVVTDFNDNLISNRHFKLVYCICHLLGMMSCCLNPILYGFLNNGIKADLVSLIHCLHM
# assay.protocol: NPY5 HTS centrifugation assay: competition with 125I-PYY for binding to membranes of NPY5-transfected HEK293 cells
# measurement.parameters: 3 uM compound, 80 pM 125I-PYY, 1 hr room temperature
Answer format: numeric, % implied, no suffix.

Look over these answered cases.
compound="O=C(CN1CCC(NS(=O)(=O)c2ccccc2)C1)NC1CCc2cc(F)ccc2C1Cc1cccnc1 (mixture of isomers) [Compound 58]" measured_on="human neuropeptide Y5 receptor (Homo sapiens, UniProt Q15761)" value=91
compound="COc1ccc(C(CNC(=O)CN2CCC(n3c(=O)[nH]c4ccccc43)CC2)Cc2cccnc2)cc1 (stereo not drawn) [Compound 86]" measured_on="human neuropeptide Y5 receptor (Homo sapiens, UniProt Q15761)" value=91

Kindly review the next compound as well.
Qu. Please look up its % Inh @ 3 uM (% Inhibition of 125I-PYY Binding): O=C(CN1CCC(n2c(=O)[nH]c3ccccc32)CC1)NC1CCc2cc(O)ccc2C1 (stereo not drawn) [Compound 83]
Ans. 92
